# assay.target: Bcl-2 protein (Recombinant Human Bcl-2 Protein) (Homo sapiens)
# Construct: purchased Novus NBP2-34889
# Sequence (P10415 whole entry): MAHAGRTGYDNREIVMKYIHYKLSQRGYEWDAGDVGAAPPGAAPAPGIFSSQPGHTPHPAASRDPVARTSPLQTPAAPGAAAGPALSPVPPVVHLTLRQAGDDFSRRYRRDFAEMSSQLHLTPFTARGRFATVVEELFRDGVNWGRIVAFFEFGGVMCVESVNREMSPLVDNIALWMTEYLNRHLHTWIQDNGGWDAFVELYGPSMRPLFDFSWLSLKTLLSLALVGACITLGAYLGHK
# assay.comment: Binding evaluation of mixture library compounds to Bcl-2 using AS-MS (affinity selection mass spectrometry)
# measurement.conditions: n = 2
metric: ASMS ratio (%)

Here are 3 compounds together with their reported answers.
| smiles.code | unit.of.measure | ASMS ratio (%) |
| --- | --- | --- |
| CCOc1cncc(-c2cc(C(=O)N3CCN(c4ccc(C(=O)NS(=O)(=O)c5ccc(NCCSc6ccccc6)c(C(F)(F)F)c5)nn4)CC3)cc(C(C)(C)C)c2)c1 | % | 2.7 |
| CCOc1cccc(-c2cc(C(=O)N3CCN(c4ccc(C(=O)NS(=O)(=O)c5ccc(NCCSc6ccccc6)c(C(F)(F)F)c5)cc4)CC3)cc(C(C)(C)C)c2)c1 | % | −7.0 |
| CCOc1cncc(-c2cc(CN3CCN(c4ccc(C(=O)NS(=O)(=O)C(C)(C)C)cc4)CC3)cc(OC(C)C)c2)c1 | % | 0.0 |

A: CCOc1cncc(-c2cnn(-c3cc(C(=O)N4CCN(c5ccc(C(=O)NS(=O)(=O)C(C)(C)C)nn5)CC4)cc(C(F)(F)F)c3)c2)c1
B: CCOc1cncc(C#Cc2cc(C(=O)N3CCN(c4ccc(C(=O)NS(=O)(=O)c5ccc(NCCSc6ccccc6)c(C(F)(F)F)c5)cc4)CC3)cc(C(F)(F)F)c2)c1
IN: Between A and B , whose measured ASMS ratio (%) reads higher? Bench note: the answer is the label of the chosen record.
OUT: B
